target: SARS-CoV-2 spike (S) protein, full length, wild type, expressed on the surface of CHO cells (SARS-CoV-2, UniProt P0DTC2 14-1273)
endpointName: median fluorescence fold over isotype (fold over isotype)

1. antibody 378 (antibody, V domains shown) VH: QVQLVQSGAEVKKPGASVKVSCKASGYTFTSYYMHWVRQAPGQGLEWMGIINPSGGSTSYAQKFQGRVTMTRDTSTSTVYMELSSLRSEDTAVYYCARDSGGMDDFWSGYYSPGGDYWGQGTLVTVSS VL: QSALTQPASVSGSPGQSITISCTGTSSDVGSYNLVSWYQQHPGKAPKLMIYEGSKRPSGVSNRFSGSKSGNTASLTISGLQAEDEADYYCCSYAGSSTWVFGGGTKLTVL
25.3
2. antibody 339 (antibody, V domains shown) V domain 1: QITLKESGPTLVKPTETLTLTCSFSGFSLTRTGEAAGWIRQAPGRALEWVTVIFWDDDKRYSPSLQSRLTVTKDTSKNQVVLTMTNVARFDTATYFCWAMGGPGKEYFGQGTQVAVSS V domain 2: QSVLTQPPSVSGAPGQRVTISCTGTSSSIGPYSDVHWYQHVSGKAPRLLIFGNSNRPSGVPDRFSGSKSGTSASLVIAGLQAEDEADYYCQSYDSSLGEIYVFGTGTTVTVL
21.2

Numbers sourced from patent US20210292393A1.
